Source: patent US8648066B2

TARGET OR TEST SYSTEM: mTOR/GbL/Raptor (mTORC1) (Homo sapiens, UniProt P42345)
EXPERIMENTAL DETAILS: mTOR/GbL/Raptor (mTORC1) ELISA assay
SETTINGS: phosphorylation of 4E-BP1; 0.2 nM mTORC1, 10 μM ATP; read-out: IC50 in this assay (mTORC1 ELISA)
MEASUREMENT TYPE: IC50

Short answer for CCNc1nc2ccc(-c3ccc4c(c3)CN(c3nc(CC)nc5cc(OC)ccc35)CCO4)cc2[nH]1 [Example 279] : IC50 was 250 to 1000 nM

Given item CCNc1nc2ccc(-c3ccc4c(c3)CN(c3ccnc5ccc(F)cc35)CCO4)cc2[nH]1 [Example 283] , the value recorded as its IC50 is 50 to 250 nM

Entry under test: CC1(C)CCc2ncnc(N3CCOc4ccc(-c5cnc(N)c(S(=O)(=O)N6CC(O)(CO)C6)c5)cc4C3)c2C1 [Example 314] . Its IC50 was 10 to 50 nM

The reported IC50 of the molecule Cc1nc2cc(-c3ccc4c(c3)CN(c3nc(CN(C)C)ncc3C(C)C)CCO4)ccc2[nH]1 [Example 612] was 50 to 250 nM

Cc1nc2ncc(-c3ccc4c(c3)CN(c3nc(CNCC(F)F)nc5c3CC(C)(C)CC5)CCO4)cc2[nH]1 [Example 592] has a reported IC50 of ≤ 10 nM

The recorded IC50 for entry CC1(C)CCc2ncnc(N3CCOc4ccc(-c5cnc(O)c(S(=O)(=O)N6CC[C@H](N)C6)c5)cc4C3)c2C1 [Example 453] equals 50 to 250 nM

Reported IC50 ( Cc1nc2ncc(-c3ccc4c(c3)CN(c3nc(CN5CC[C@H](F)C5)nc5c3CC(C)(C)CC5)CCO4)cc2[nH]1 [Example 464] ) = 10 to 50 nM

---

TARGET OR TEST SYSTEM: mTOR/GbL/Raptor (mTORC1) (Homo sapiens, UniProt P42345)
EXPERIMENTAL DETAILS: mTOR/GbL/Raptor (mTORC1) ELISA assay
SETTINGS: phosphorylation of 4E-BP1; 0.2 nM mTORC1, 10 μM ATP; read-out: IC50 in this assay (mTORC1 ELISA)
Experimental: The measurement of mTORC1 enzyme activity was performed in an ELISA assay format following the phosphorylation of 4E-BP1 protein. All experiments were performed in the 384-well format. Generally, 0.5 μL DMSO containing varying concentrations of the test Compound was mixed with 15 μL enzyme solution. […] Following the final wash step with TBST, 20 μL of SuperSignal ELISA Femto (Pierce Biotechnology) was added and the luminescence measured using an EnVision plate reader.
MEASUREMENT TYPE: IC50

Simply: CCN1CCc2c(ncnc2N2CCOc3ccc(-c4ccc5nc(C)[nH]c5c4)cc3C2)C1 [Example 211] , mTOR/GbL/Raptor (mTORC1) (Homo sapiens, UniProt P42345), IC50 = 1000 to 2000 nM

Record COc1c(OCc2ccc3ccccc3n2)ccc2c(N3CCOc4ccc(-c5ccc6nc(C)[nH]c6c5)cc4C3)ncnc12 [Example 167] has mTOR/GbL/Raptor (mTORC1) (Homo sapiens, UniProt P42345) IC50 equal to ≥ 2000 nM

Cc1nc2cc(-c3ccc4c(c3)CN(c3nc(CCN5CCCC5)nc5c3CC(C)(C)CC5)CCO4)cnc2[nH]1 [Example 497] tested on mTOR/GbL/Raptor (mTORC1) (Homo sapiens, UniProt P42345) gave IC50: 10 to 50 nM

# lookup: Cc1nc2ccc(-c3ccc4c(c3)CN(c3ncnc(C)c3Cc3ccc(F)c(F)c3)CCO4)cc2[nH]1 [Example 89] on mTOR/GbL/Raptor (mTORC1) (Homo sapiens, UniProt P42345), IC50 = ≤ 10 nM

---

Exercise: for every item that follows, state its recorded pIC50.
TARGET OR TEST SYSTEM: mTOR/GbL/Raptor (mTORC1) (Homo sapiens, UniProt P42345)
EXPERIMENTAL DETAILS: mTOR/GbL/Raptor (mTORC1) ELISA assay
SETTINGS: phosphorylation of 4E-BP1; 0.2 nM mTORC1, 10 μM ATP; read-out: IC50 in this assay (mTORC1 ELISA)
pIC50: −log10 of the molar value.

Looking up Cc1nc2ncc(-c3ccc4c(c3)CN(c3ncnc5c3CCCC5(C)C)CCO4)cc2[nH]1 , I see its pIC50 listed as 7.30 to 8.00

Documented pIC50 of Cc1nc(C)c(CC2CC2)c(N2CCOc3ccc(-c4cnc5nc(C)[nH]c5c4)cc3C2)n1 : 7.30 to 8.00

pIC50 for Cc1nc2ccc(-c3ccc4c(c3)CN(c3ncnc5sccc35)CCO4)cc2[nH]1 is 6.00 to 6.60

Input Cc1nc2ccc(-c3ccc4c(c3)CN(c3cc(-c5ccccc5)nc5ccccc35)CCO4)cc2[nH]1 . Output pIC50: 6.00 to 6.60

---

TARGET OR TEST SYSTEM: mTOR/GbL/Raptor (mTORC1) (Homo sapiens, UniProt P42345)
EXPERIMENTAL DETAILS: mTOR/GbL/Raptor (mTORC1) ELISA assay
Type: biochemical
SETTINGS: phosphorylation of 4E-BP1; 0.2 nM mTORC1, 10 μM ATP; read-out: IC50 in this assay (mTORC1 ELISA)
pIC50: −log10 of the molar value.
Kindly supply the reported pIC50 values for the records listed here.

Observed pIC50, mTOR/GbL/Raptor (mTORC1) (Homo sapiens, UniProt P42345), CC1(C)CCc2ncnc(N3CCOc4ccc(-c5cnc(N)c(S(=O)(=O)N6CC(C)(N)C6)c5)cc4C3)c2C1 : ≥ 8.00

For the compound Cc1nc2ccc(-c3ccc4c(c3)CN(c3cc(C(C)(C)O)nc5c3CC(C)(C)CC5)CCO4)cc2[nH]1 , the measured pIC50 on mTOR/GbL/Raptor (mTORC1) (Homo sapiens, UniProt P42345) was 6.60 to 7.30

Given the compound CCc1c(C(C)C)ncnc1N1CCOc2ccc(-c3ccc4nc(C)[nH]c4c3)cc2C1 and test system mTOR/GbL/Raptor (mTORC1) (Homo sapiens, UniProt P42345), the measured pIC50 is 6.60 to 7.30

// compound Cc1nc2ccc(-c3ccc4c(c3)CN(c3ncnc5c3CCC(C)(C)C5)CCO4)cc2[nH]1 , assay mTOR/GbL/Raptor (mTORC1) (Homo sapiens, UniProt P42345), pIC50 value: 7.30 to 8.00

# COc1ccccc1Cc1c(C)ncnc1N1CCOc2ccc(-c3ccc4nc(C)[nH]c4c3)cc2C1 with mTOR/GbL/Raptor (mTORC1) (Homo sapiens, UniProt P42345): pIC50 is 7.30 to 8.00

Form field pIC50 for item Cc1nc2ncc(-c3ccc4c(c3)CN(c3ncnc(C)c3CC3CC3)CCO4)cc2[nH]1 on mTOR/GbL/Raptor (mTORC1) (Homo sapiens, UniProt P42345): 7.30 to 8.00

# lookup: Cc1c(N2CCOc3ccc(-c4cnc5nc(C6CC6)[nH]c5c4)cc3C2)ncnc1N(C)[C@@H](C)c1ccccc1 on mTOR/GbL/Raptor (mTORC1) (Homo sapiens, UniProt P42345), pIC50 = 6.60 to 7.30

// compound COc1ccc2c(N3CCOc4ccc(-c5cccc(C(=O)O)c5)cc4C3)nc(C)nc2c1 , assay mTOR/GbL/Raptor (mTORC1) (Homo sapiens, UniProt P42345), pIC50 value: ≤ 5.70

Param item: CCNc1nc2ccc(-c3ccc4c(c3)CN(c3cc(Nc5cccc(OC)c5)ncn3)CCO4)cc2[nH]1 ; param system: mTOR/GbL/Raptor (mTORC1) (Homo sapiens, UniProt P42345); output pIC50: 6.00 to 6.60

Tested on mTOR/GbL/Raptor (mTORC1) (Homo sapiens, UniProt P42345): Cc1nc2ccc(-c3ccc4c(c3)CN(c3ccnc(N)n3)CCO4)cc2[nH]1 . Observed pIC50: 6.00 to 6.60

Test item CC1(C)CCc2ncnc(N3CCOc4ccc(-c5cnc(N)c(S(=O)(=O)NC(C)(C)CO)c5)cc4C3)c2C1 ; mTOR/GbL/Raptor (mTORC1) (Homo sapiens, UniProt P42345); reported pIC50 was 7.30 to 8.00

Value sought: pIC50, system mTOR/GbL/Raptor (mTORC1) (Homo sapiens, UniProt P42345), item COC(=O)Nc1nc2ncc(-c3ccc4c(c3)CN(c3nc(CN(C)C)nc5c3CC(C)(C)CC5)CCO4)cc2[nH]1 . Result: 6.60 to 7.30

Measured on mTOR/GbL/Raptor (mTORC1) (Homo sapiens, UniProt P42345), Cc1nc2ccc(-c3ccc4c(c3)CN(c3nc(CN(C)C)nc5c3CC(C)(C)CC5)CCO4)cc2[nH]1 has a documented pIC50 of 7.30 to 8.00

Value (pIC50, mTOR/GbL/Raptor (mTORC1) (Homo sapiens, UniProt P42345)) for record CN(C)CCNS(=O)(=O)c1cc(-c2ccc3c(c2)CN(c2ncnc4c2CC(C)(C)CC4)CCO3)cnc1N = 6.60 to 7.30

Record c1ccc2c(N3CCOc4ccc(-c5ccc6nc(C7CC7)[nH]c6c5)cc4C3)ccnc2c1 has mTOR/GbL/Raptor (mTORC1) (Homo sapiens, UniProt P42345) pIC50 equal to 6.00 to 6.60
